Data provenance: patent US20200131156A1

// values below are reported EC50
- MEASURED_TARGET: hNav1.1 (Homo sapiens)
- PROTOCOL_NOTES: Off-target Nav1.1 electrophysiology (Qpatch), multiple state readouts
- CONDITION_DETAILS: activation; resting, use-dependent and inactivated state readouts; up to 30 μM

[
  {
    "CHEMICAL_SMILES": "Cc1ccc(S(=O)(=O)n2ccc(C(=O)NCc3ncco3)c2)cc1",
    "EC50": "> 30 µM"
  }
]

Note: attention shifts to another entry.
Give the reported EC50 for this compound. `Cc1cnc(CNC(=O)c2ccn(S(=O)(=O)c3ccc(F)cc3C)c2)cn1` > 30 µM

---

- MEASURED_TARGET: hKv1.1/1.2 (Homo sapiens, UniProt P16389+Q09470)
- Sequence (Q09470 whole entry): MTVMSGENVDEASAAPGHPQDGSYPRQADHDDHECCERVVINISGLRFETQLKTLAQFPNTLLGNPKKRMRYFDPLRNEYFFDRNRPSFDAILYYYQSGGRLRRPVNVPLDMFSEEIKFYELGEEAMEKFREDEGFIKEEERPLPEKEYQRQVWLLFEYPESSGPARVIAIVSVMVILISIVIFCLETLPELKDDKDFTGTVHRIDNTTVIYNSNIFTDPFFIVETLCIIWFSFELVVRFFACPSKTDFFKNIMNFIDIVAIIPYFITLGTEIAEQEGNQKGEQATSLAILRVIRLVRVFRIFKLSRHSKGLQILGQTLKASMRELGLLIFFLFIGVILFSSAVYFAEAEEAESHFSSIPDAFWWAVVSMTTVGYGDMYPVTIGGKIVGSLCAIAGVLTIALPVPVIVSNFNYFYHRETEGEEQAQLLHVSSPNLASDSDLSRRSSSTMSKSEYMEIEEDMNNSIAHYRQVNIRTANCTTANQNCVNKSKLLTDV
- Sequence (P16389 whole entry): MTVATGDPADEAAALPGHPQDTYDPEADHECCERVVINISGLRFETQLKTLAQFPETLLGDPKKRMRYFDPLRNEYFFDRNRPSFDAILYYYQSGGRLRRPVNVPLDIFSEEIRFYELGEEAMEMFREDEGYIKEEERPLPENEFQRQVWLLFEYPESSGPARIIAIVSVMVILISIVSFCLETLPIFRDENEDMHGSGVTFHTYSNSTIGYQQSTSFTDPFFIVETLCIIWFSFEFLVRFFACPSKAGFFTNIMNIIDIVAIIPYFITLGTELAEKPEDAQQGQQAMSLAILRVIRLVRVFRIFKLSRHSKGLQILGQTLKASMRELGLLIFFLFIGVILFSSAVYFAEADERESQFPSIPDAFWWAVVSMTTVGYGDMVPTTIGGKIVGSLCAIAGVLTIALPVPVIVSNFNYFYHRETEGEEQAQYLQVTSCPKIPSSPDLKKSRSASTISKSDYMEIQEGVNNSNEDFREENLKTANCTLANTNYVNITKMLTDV
- PROTOCOL_NOTES: Off-target Kv1.1/1.2 inhibition electrophysiology (Qpatch)
- Assay type: cell-based
- CONDITION_DETAILS: use-dependent; up to 30 μM; read-out: hKv1.1/1.2 (Qpatch) Use-dependent IC50
- Protocol: The activity of selected compound examples at three key ion channel off targets was measured, namely Nav1.1, Kv1.1/1.2 and Kv7.2/7.3. Effects of selected examples on inhibition of the voltage gated heteromeric potassium channel Kv1.1/1.2 was also tested in a use-dependent manner by electrophysiology at concentrations up to 30 μM.
READOUT: IC50

[
  {
    "CHEMICAL_SMILES": "Cc1cnc(CNC(=O)c2ccn(S(=O)(=O)c3ccc(F)cc3C)c2)cn1",
    "READOUT": "IC50",
    "VALUE": "> 30 µM"
  }
]

Lab note: next molecule to report on.
Identify the reported IC50 for the following entry. `Cc1ccc(S(=O)(=O)n2ccc(C(=O)NCc3ncco3)c2)cc1` ≥ 30 µM

---

- MEASURED_TARGET: hKv3.1b (Homo sapiens, UniProt P48547)
- Construct: expressed in transfected cells
- PROTOCOL_NOTES: Automated patch clamp (QPatch-16x) on HEK-293 cells stably expressing hKv3.1b
- Format: cell-based
- CONDITION_DETAILS: maximum absolute hyperpolarizing shift of activation threshold at tested concentrations 0.37-30 μM
- Procedure: HEK-293 cells stably expressing hKv3.1b were used for the experiments. Cells were cultured in DMEM medium supplemented with 10% Fetal Bovine Serum, 100 ug/mL Geneticidin and 100 u/mL Penicillin/Streptomycin (all from Gibco). Cells were grown to 80-90% confluency at 37° C. and 5% CO2. […] Leak subtraction protocol was applied at −33% of the sweep amplitude, and serial resistance values were constantly monitored. […]
Param threshold (20 mV) applies to Threshold Shift; output t when value >= threshold, f when value < threshold.

Please review the entries below; each comes with its answer.
[
  {
    "COMPOUND": "COc1ccc(S(=O)(=O)n2ccc(C(=O)NCc3ncc(C)o3)c2)cc1 [Compound 73]",
    "ASSIGNED_CATEGORY": "f"
  },
  {
    "COMPOUND": "Cc1ccc(S(=O)(=O)n2ccc(C(=O)NCc3cnccn3)c2)cc1 [Compound 29]",
    "ASSIGNED_CATEGORY": "t"
  },
  {
    "COMPOUND": "Cc1ccc(S(=O)(=O)n2ccc(C(=O)NCc3ncc(C)s3)c2)cc1 [Compound 39]",
    "ASSIGNED_CATEGORY": "f"
  }
]

Continue with the compound presented below.
Assess whether reported Threshold Shift for Cc1ccc(S(=O)(=O)n2ccc(C(=O)NCc3cc(C)no3)c2)cc1 [Compound 35] sits at 20 mV or higher. t

---

- PROTOCOL_NOTES: In vivo pharmacokinetic time profile in mice (plasma and brain)
- Parameters: species or system mouse
- CONDITION_DETAILS: male, C57, plasma, 30 mg/kg; mouse, PO administration, dose 30 (mg/mg); read-out: T½ (converted)
READOUT: half-life (h)
Your answer is read as h, so omit the unit and give the number.

Tell me its half-life given `Cc1cnc(CNC(=O)c2ccn(S(=O)(=O)c3ccc(F)cc3C)c2)cn1` as the entry. 1

---

- PROTOCOL_NOTES: In vivo pharmacokinetic time profile in mice (plasma and brain)
- Parameters: species or system mouse
- CONDITION_DETAILS: male, C57, mouse, brain, subcutaneous; read-out: measured brain/plasma ratio
- Description: Male Sprague Dawley rats or male C57 mice from SLAC Laboratory Animal Co. Ltd., Shanghai, China or SIPPR/BK Laboratory Animal Co. Ltd., Shanghai, China were used for pharmacokinetic studies. Animals were group housed during acclimation and individually housed during in-life. […]
READOUT: Kp
// no unit, no text: just the number

Look up Kp of `Cc1ccc(S(=O)(=O)n2ccc(C(=O)NCc3ncco3)c2)cc1` and report it. 0.3

---

- MEASURED_TARGET: hKv3.1b (Homo sapiens)
- Construct: expressed in transfected cells
- Sequence (P48547 1-585 isoform P48547-2): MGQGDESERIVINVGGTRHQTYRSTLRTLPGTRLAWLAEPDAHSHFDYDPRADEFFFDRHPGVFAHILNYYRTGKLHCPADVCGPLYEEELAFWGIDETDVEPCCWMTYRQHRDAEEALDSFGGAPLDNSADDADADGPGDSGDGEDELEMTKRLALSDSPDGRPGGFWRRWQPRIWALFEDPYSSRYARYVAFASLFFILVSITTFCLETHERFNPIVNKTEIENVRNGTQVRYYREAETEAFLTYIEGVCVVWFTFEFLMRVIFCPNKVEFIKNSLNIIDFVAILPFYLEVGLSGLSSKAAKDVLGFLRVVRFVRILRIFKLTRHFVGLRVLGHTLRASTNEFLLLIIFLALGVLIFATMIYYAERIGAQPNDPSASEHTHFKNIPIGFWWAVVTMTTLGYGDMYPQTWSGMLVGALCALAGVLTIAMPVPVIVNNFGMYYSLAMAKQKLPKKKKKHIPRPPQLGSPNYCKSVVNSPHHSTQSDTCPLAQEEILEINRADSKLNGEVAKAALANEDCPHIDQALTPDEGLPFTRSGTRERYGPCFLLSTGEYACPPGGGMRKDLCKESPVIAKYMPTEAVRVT
- PROTOCOL_NOTES: Automated patch clamp (QPatch-16x) on HEK-293 cells stably expressing hKv3.1b
- Assay type: cell-based
- CONDITION_DETAILS: concentration needed to shift the activation threshold 5 mV
Below: a set of entries, each annotated with reported ECdelta5 mV.
Give the value, in units of nM, as a plain number.

[
  {
    "MOLECULE": "Cc1ccc(S(=O)(=O)n2ccc(C(=O)NCc3cnc4nccn4c3)c2)cc1 [Compound 24]",
    "ECdelta5 mV, nM": 3200
  },
  {
    "MOLECULE": "Cc1ccccc1S(=O)(=O)n1ccc(C(=O)NCc2ccn(C)n2)c1 [Compound 74]",
    "ECdelta5 mV, nM": 2100
  },
  {
    "MOLECULE": "Cc1ccc(S(=O)(=O)n2ccc(C(=O)NCc3cccnc3)c2)cc1 [Compound 14]",
    "ECdelta5 mV, nM": 1500
  }
]

Supply measured ECdelta5 mV of Cc1ccc(S(=O)(=O)n2ccc(C(=O)NCc3cnsc3)c2)cc1 [Compound 55] in your reply. 1500

Provide only the value of recorded ECdelta5 mV for Cc1ccc(S(=O)(=O)n2ccc(C(=O)NCc3cnc(C)nc3)c2)cc1 [Compound 2] 750

Name the recorded ECdelta5 mV of the molecule listed here: CNc1cnc(CNC(=O)c2ccn(S(=O)(=O)c3ccc(OC(F)F)cc3)c2)cn1 [Compound 107] 1800

Consider the molecule Cc1ccc(S(=O)(=O)n2ccc(C(=O)NCc3ncc(C)o3)c2)cc1 [Compound 33] . State its measured ECdelta5 mV. 2200

Give me measured ECdelta5 mV, please, for this molecule: COc1ccc(S(=O)(=O)n2ccc(C(=O)NCc3ncc(C)cn3)c2)cc1 [Compound 72] 2800

---

- MEASURED_TARGET: hKv3.1b (Homo sapiens, UniProt P48547)
- Construct: expressed in transfected cells
- PROTOCOL_NOTES: Automated patch clamp (QPatch-16x) on HEK-293 cells stably expressing hKv3.1b
- Assay type: cell-based
- CONDITION_DETAILS: maximum absolute hyperpolarizing shift of activation threshold at tested concentrations 0.37-30 μM
READOUT: Threshold Shift (mV)
Unit mV implied. Number only.

Past entries and their recorded results:
[
  {
    "COMPOUND": "Cc1ccc(S(=O)(=O)n2ccc(C(=O)NCc3ccc(F)cn3)c2)cc1 [Compound 13]",
    "READOUT": "Threshold Shift",
    "VALUE": 13
  },
  {
    "COMPOUND": "COc1ccc(S(=O)(=O)n2ccc(C(=O)NCc3ccn(C)n3)c2)c(Cl)c1 [Compound 117]",
    "READOUT": "Threshold Shift",
    "VALUE": 21
  },
  {
    "COMPOUND": "Cc1cnc(CNC(=O)c2ccn(S(=O)(=O)c3ccc4c(c3)CCO4)c2)cn1 [Compound 102]",
    "READOUT": "Threshold Shift",
    "VALUE": 32
  },
  {
    "COMPOUND": "Cc1ccc(S(=O)(=O)n2ccc(C(=O)NCc3cnc(C)cn3)c2F)cc1 [Compound 88]",
    "READOUT": "Threshold Shift",
    "VALUE": 23
  }
]

Alright, here's another compound for you.
Tell me its Threshold Shift given COc1ccc(S(=O)(=O)n2ccc(C(=O)NCc3cnc(C)cn3)c2)cc1 [Compound 7] as the entry. 33
